Target: Receptor tyrosine-protein kinase erbB-2 (Homo sapiens)
Assay: reducers of endogenous Her2 protein level, primary screen, SKBR3 breast tumor cells, AlphaScreen, ATP viability (AID 461);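 further: lower value means less Her2 protein in the cells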
Conditions: 18-24 h, at 10 µM, stronger effect = lower value
Peptide text beside a SMILES is read from it. * marks the point of attachment. Boc = CC(C)(C)OC(=O)*
PROPERTY_LABEL: Her2 level (%)
Give bare numbers, in %.

compound=CCCn1nnnc1SCC(=O)c1ccc2c(c1)OCCO2 readout_value=108

Required: Her2 level, one value per compound below.
1. CC1CC(=O)C2=C(C1)OC(N)=C(C#N)C2c1coc2ccccc2c1=O (stereo not given)
2. CC(C)CC(NC(=O)OC(C)(C)C)C(=O)NC(C(=O)NC(C)C(N)=O)C(C)C (stereo not drawn) (Boc-Leu-Val-Ala-NH2; configuration not given here)
3. COc1ccc(-c2noc(CSc3nc(N)c(-c4ccccc4)c(=O)[nH]3)n2)cc1OC
4. COc1ccc(CNC(=O)CCc2nc(-c3ccccc3F)no2)c(OC)c1
5. CCc1nnc(NC(=O)CSc2nnc(-c3ccc(OC)cc3)n2C)s1
6. Cc1cc(C)c(NC(=O)C2CSCCS2)c(C)c1 (stereo not given)
7. CC(C)N(C(=O)CSc1nnc(NC(=O)C2CCC2)s1)C(C)C
8. COc1cc(NC(=O)Cc2nn(C)c(=O)c3ccccc23)cc(OC)c1

-- reply
88.5
107
94.5
95
94
79.5
90.5
91.5

-- ask Identify measured Her2 level obtained with Receptor tyrosine-protein kinase erbB-2 (Homo sapiens) for CN=C(Nc1cc(C)nn1-c1ccccc1)c1ccccc1 .
-- reply 95.5

----------
Experiment: HUVEC growth inhibition – cell-based, human, primary screen (AID 575);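 further: 100% = median of untreated cell wells with 0.1% DMSO on each plate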
Settings: HUVEC proliferation, CellTiter-Glo luminescence, 72 h; at 10 µM; stronger effect = lower value
PROPERTY_LABEL: viability (%)
Answers are plain numbers, in %.

compound=O=C(Cn1ccc2ccccc2c1=O)Nc1ccc2c(c1)OCO2 readout_value=95.7
compound=Cn1c(=O)n(C)c2cc(CNc3ccc(N4CCOCC4)c(C(=O)O)c3)ccc21 readout_value=113
compound=CC(C)Cc1nc(S(=O)(=O)c2ccc(Cl)cc2)c(N2CCOCC2)o1 readout_value=87.8
compound="CCCn1c(NC(=O)C2COc3ccccc3O2)nc2ccccc21 (stereo unspecified)" readout_value=66.1
compound="Cc1ccc(-c2noc(C3CCCN(C(=O)c4ccc(F)cc4F)C3)n2)cc1 (stereo unspecified)" readout_value=87.4
compound=Cc1nnc(NC(=O)c2ccccc2F)s1 readout_value=107

Required: viability, one value per compound below.
1. CC(=O)Nc1ccccc1-c1nc2ccc(C(=O)N3CCN(c4ccccc4)CC3)cc2[nH]c1=O
2. COc1cccc(Oc2ccc(N)cn2)c1

-- reply
1. 86.2
2. 109

Required: viability, one value per compound below.
1. COc1ccccc1NC(=O)N1CCCC1C(=O)NC1CCCCC1 (stereo unspecified)
2. Cc1nnc(C)c2c(C)n(-c3ccc(Br)cc3)c(C)c12
3. CCC(c1nnnn1CCOC)N(Cc1ccc(C)cc1)Cc1cc2cc(OC)ccc2[nH]c1=O (stereo unspecified)

-- reply
1: 101; 2: 92.3; 3: 71.9

----------
Assay: 384-well plate pilot, post-Golgi transport modulator project, inhibition of yeast transport mutant growth (AID 636)
Conditions: absorbance 615 nm, about 18 h, stronger effect = higher value
PROPERTY_LABEL: inhibition (%)
Give bare numbers, in %.

Example molecules with recorded inhibition:
molecule="CSCCC(C(=O)Nc1ccc2c(c1)OCO2)N1C(=O)c2ccccc2C1=O (stereo unspecified)" units_label=% readout_value=-1.3
molecule=Cc1nn(C)cc1NC(=O)CCSc1nc(-c2ccco2)cc(C(F)(F)F)n1 units_label=% readout_value=-4.4
molecule=COc1ccc(-c2noc(-c3ccccc3C(=O)Nc3cccnc3)n2)cc1OC units_label=% readout_value=-3.6
molecule=CCOC(=O)c1nnc(-c2ccccc2)o1 units_label=% readout_value=-1.56
molecule="CC(C)C1C2=C(CC(C)(C)CC2=O)ON1c1ccccc1 (stereo unspecified)" units_label=% readout_value=-1.6

From here, focus on the item given below.
-- ask // fetch inhibition given entry CCSc1nnc(NC(=O)c2ccc(C)o2)s1
-- reply -4.13

----------
Target: Receptor tyrosine-protein kinase erbB-2 (Homo sapiens)
Assay: reducers of endogenous Her2 protein level, primary screen, SKBR3 breast tumor cells, AlphaScreen, ATP viability (AID 461);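 further: lower value means less Her2 protein in the cells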
Settings: 18-24 h, at 10 µM, stronger effect = lower value
Mark criterion met only for Her2 level values smaller than 90%; exact matches and larger values are criterion not met.

structure_notation=Cc1ccc(S(=O)(=O)N(C)Cc2cc3ccccc3[nH]c2=O)cc1 assigned_label="criterion met"
structure_notation=CCCCP(=O)(CCCC)Cc1ccccc1O assigned_label="criterion not met"
structure_notation=Cc1c(C(=O)Nc2cnccn2)oc2ccccc12 assigned_label="criterion met"
structure_notation=Nc1c(C2=NCCO2)nnn1Cc1ccccc1 assigned_label="criterion not met"
structure_notation=CS(=O)(=O)c1ccc2nc(NC(=O)c3cccs3)sc2c1 assigned_label="criterion met"

-- ask Is Her2 level of CC(C)(C)c1cc(C(=S)N2CCN(CCO)CC2)cc(C(C)(C)C)c1O strictly below 90%?
-- reply criterion met

-- ask Is Her2 level of Cc1nnc(SCC(=O)N2CCC(C(=O)Nc3nccs3)CC2)n1Cc1ccccc1 strictly below 90%?
-- reply criterion met

----------
Experiment: growth suppression of yeast trafficking mutant, preliminary HTS, modulators of trafficking downstream of Golgi apparatus project, 1536-format plate, OD 615 nm (AID 637)
Settings: yeast transport mutant growth, absorbance 615 nm, 18 h; stronger effect = higher value
I'd be grateful if you could share measured inhibition for these entries.
Answers are plain numbers, in %.

Required: inhibition, one value per molecule below.
1. N#Cc1nc(-c2ccco2)oc1N1CCN(c2cccc(Cl)c2)CC1
2. O=c1c2c(-c3ccccc3)csc2nc2n1CCC2
3. CC(C)(C)Cc1nc(-c2ccccn2)no1
4. COc1ccccc1OCC(=O)Nc1cccc(-c2nc3ccccc3o2)c1
5. CCOC(=O)N1CCC(NC(=O)CSCc2nc(-c3cccc(OC)c3)oc2C)CC1
6. O=C(Nc1cccc(C(F)(F)F)c1)c1ccco1

-- reply
1: 4.29; 2: 29.2; 3: -3.67; 4: 23; 5: 3.06; 6: 8.52

----------
Assay: reversal of MRP1-mediated doxorubicin resistance, pilot screen, H69AR cells, doxorubicin co-treatment (AID 601)
Details: H69AR cells, CellTiter-Glo, 72 h; compound alone cytotoxicity; at 10 µM
Mark yes (1) only for viability values smaller than 90%; exact matches and larger values are no (0).

Examples with answers:
compound=COC(=O)Cn1c2c(c3cc(C)ccc31)CCCC2 assigned_label="no (0)"
compound=CCOC(=O)CSc1nnc([C@H](C)NC(=O)OC(C)(C)C)o1 assigned_label="no (0)"
compound=CCOc1ccc(C(=O)N2CCC(C(=O)c3ccc4c(c3)OCCO4)CC2)cc1 assigned_label="yes (1)"

-- ask Is viability of COc1ccc(CCn2c(-c3ccco3)nc3nc4ccccc4nc32)cc1 strictly below 90%?
-- reply yes (1)

-- ask Is viability of O=C(NC1CCCC1)C(c1ccco1)N(Cc1ccccc1)C(=O)c1csnn1 (stereo not drawn) strictly below 90%?
-- reply no (0)

-- ask Is viability of O=C(COc1ccccc1F)NC1CC1 strictly below 90%?
-- reply no (0)

-- ask Is viability of COC(=O)c1cccc(NC(=O)NC2CCCN2S(=O)(=O)c2ccc(Cl)cc2)c1 (stereo not drawn) strictly below 90%?
-- reply no (0)

-- ask Is viability of COc1ccc(OC)c(N(CC(=O)N2CCN(c3cc(Cl)ccc3C)CC2)S(C)(=O)=O)c1 strictly below 90%?
-- reply yes (1)

-- ask Is viability of O=C(CSc1nnc(Cc2cccs2)n1Cc1ccco1)Nc1cccc(Cl)c1 strictly below 90%?
-- reply yes (1)

-- ask Is viability of CCC(NS(=O)(=O)c1ccc(C)cc1)C(=O)N1CCC2(O)CCCCC2C1 (stereo not drawn) strictly below 90%?
-- reply no (0)

-- ask Is viability of CC1(C)Cc2noc(N)c2C(C)(C)N1OC(=O)c1ccco1 strictly below 90%?
-- reply no (0)

-- ask Is viability of C=CCN(C(=O)CNS(=O)(=O)c1ccccc1)C(C(=O)NCCOC)c1ccncc1 (stereo not drawn) strictly below 90%?
-- reply no (0)

-- ask Is viability of O=c1c2nnn(Cc3ccccc3)c2ncn1-c1ccccc1 strictly below 90%?
-- reply no (0)

----------
Target: Receptor tyrosine-protein kinase erbB-2 (Homo sapiens)
Test: reducers of endogenous Her2 protein level, primary screen, SKBR3 breast tumor cells, AlphaScreen, ATP viability (AID 461);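 further: lower value means less Her2 protein in the cells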
Conditions: 18-24 h, at 10 µM, stronger effect = lower value
I'd be grateful if you could share measured Her2 level for these entries.
Give bare numbers, in %.

compound=Nn1c(SCC(=O)Nc2ccc(F)cc2)nnc1-c1cccnc1 property_label="Her2 level" readout_value=81
compound=CC(=O)Nc1ccccc1OCc1nnc(-c2cccs2)o1 property_label="Her2 level" readout_value=93

Required: Her2 level, one value per compound below.
1. CS(=O)(=O)NCc1ccc(C(=O)NCc2ccccc2)cc1
2. CCN1CCN(Cc2ccc(NC(=O)Nc3ccc(SC)cc3)cc2)CC1
3. COc1ccc(NC(=O)CCc2nc(-c3ccccc3F)no2)cc1
4. CCC1SC2=NC(C)=C(C(=O)OC)C(c3ccc(C)cc3)N2C1=O (stereo not drawn)
5. COc1ccc(Cl)cc1Nc1nc(C)cc(=O)[nH]1
6. Fc1ccccc1-c1nc(NCCCN2CCOCC2)c2ccccc2n1
7. CCCN(Cc1cc2ccc(C)cc2[nH]c1=O)C(=O)c1cccnc1

-- reply
97
82.5
99
96
86
107
93
